Test: method code SF-HPLC, from DOI: 10.1016/j.ejmech.2006.12.027, PMID: 17306423
Form field: logP (one value per entry).

| structure-as-smiles | logP |
| --- | --- |
| CC1(C)N(O)C(c2cccc(O)c2)=[N+]([O-])C1(C)C | 1.14 |
| CC1(C)N(O)C(c2ccc(Cl)cc2Cl)=[N+]([O-])C1(C)C | 1.93 |
| CC1(C)N(O)C(c2ccccc2)=[N+]([O-])C1(C)C | 1.37 |
| CC1(C)N(O)C(c2ccc(O)cc2)=[N+]([O-])C1(C)C | 0.62 |
| Cc1ccc(C2=[N+]([O-])C(C)(C)C(C)(C)N2O)cc1 | 1.9 |
| CC1(C)N(O)C(c2ccc(Br)cc2)=[N+]([O-])C1(C)C | 2.46 |
| COc1ccc(C2=[N+]([O-])C(C)(C)C(C)(C)N2O)c(OC)c1 | 0.77 |
| CN(C)c1ccc(C2=[N+]([O-])C(C)(C)C(C)(C)N2O)cc1 | 2.02 |
| COc1ccc(C2=[N+]([O-])C(C)(C)C(C)(C)N2O)cc1OC | 1.15 |
| CC1(C)N(O)C(c2ccc3c(c2)OCO3)=[N+]([O-])C1(C)C | 1.51 |
| CC1(C)N(O)C(c2ccc([N+](=O)[O-])cc2)=[N+]([O-])C1(C)C | 1.68 |

// data source = the SangsterLogP compilation
